Data provenance: patent US20130230533A1

Recorded measurements of koff, one per entry
# tested_system: T1, Monomeric human CD48-mmH (human)
# T1 chain: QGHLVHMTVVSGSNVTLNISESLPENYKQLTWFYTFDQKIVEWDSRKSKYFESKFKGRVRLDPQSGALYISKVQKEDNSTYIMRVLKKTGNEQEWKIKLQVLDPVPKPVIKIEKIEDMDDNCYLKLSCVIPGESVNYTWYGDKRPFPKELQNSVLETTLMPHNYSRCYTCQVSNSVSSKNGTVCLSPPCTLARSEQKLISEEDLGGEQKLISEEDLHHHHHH
# assay_text: SPR (Biacore), antibody captured by anti-Fc, CD48 in solution, 37 C
# unit: s⁻¹ | format: bare number

In the examples that follow, each entry is paired with its recorded koff.
- binder: "H4H1770P (antibody, human IgG4, V domains shown, Human IgG4 Fc (H4H)) VH: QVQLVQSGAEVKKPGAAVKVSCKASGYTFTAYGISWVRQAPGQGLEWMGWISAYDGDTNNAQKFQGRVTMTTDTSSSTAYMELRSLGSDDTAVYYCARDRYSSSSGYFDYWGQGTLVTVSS VL: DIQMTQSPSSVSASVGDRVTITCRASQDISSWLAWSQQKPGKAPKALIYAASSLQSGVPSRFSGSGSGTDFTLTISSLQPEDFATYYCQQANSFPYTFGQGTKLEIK"
  unit_string: "s⁻¹"
  reported_result: 0.000533
- binder: "H2M1709N (antibody, mouse IgG2, V domains shown, Human variable domains, mouse IgG2 Fc (H2M)) VH: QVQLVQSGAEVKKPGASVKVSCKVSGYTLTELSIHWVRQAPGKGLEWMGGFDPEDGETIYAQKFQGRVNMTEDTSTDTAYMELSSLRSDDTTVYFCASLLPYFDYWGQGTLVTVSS VL: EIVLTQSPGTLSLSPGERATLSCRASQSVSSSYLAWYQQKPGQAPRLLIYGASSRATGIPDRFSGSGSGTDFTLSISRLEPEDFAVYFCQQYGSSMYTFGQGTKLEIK"
  unit_string: "s⁻¹"
  reported_result: 0.04

Let us examine a further case.
# lookup: koff of H4H1771P (antibody, human IgG4, V domains shown, Human IgG4 Fc (H4H)) VH: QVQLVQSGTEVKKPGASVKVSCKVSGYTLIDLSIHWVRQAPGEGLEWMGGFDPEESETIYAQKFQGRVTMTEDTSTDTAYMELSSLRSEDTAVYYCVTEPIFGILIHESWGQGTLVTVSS VL: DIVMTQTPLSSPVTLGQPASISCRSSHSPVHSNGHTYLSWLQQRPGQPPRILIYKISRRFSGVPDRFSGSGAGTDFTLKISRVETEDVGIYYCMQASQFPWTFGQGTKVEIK 0.000547
